Origin of measurements: the NIST ThermoML archive (doi:10.1021/acs.jced.5b00860)

- Assay Conditions: 308.15 K; 101.33 kPa; Liquid; Alternating current cell with electrodes
Flag rule - electrical conductivity less than 0.2 S/m flags criterion met; the remaining entries get criterion not met.

Before answering, review these 8 worked examples.
>  <Compound>
CCCCCn1cc[n+](C)c1.O=C([O-])O [3-methyl-1-pentylimidazolium hydrogen carbonate]

>  <Class Name>
criterion not met

$$$$
>  <Compound>
CCC[n+]1ccn(C)c1.O=P([O-])(O)O [1-methyl-3-propylimidazolium dihydrogen phosphate]

>  <Class Name>
criterion not met

$$$$
>  <Compound>
CCCCn1cc[n+](C)c1.O=C([O-])O [1-butyl-3-methylimidazolium hydrogen carbonate]

>  <Class Name>
criterion not met

$$$$
>  <Compound>
CCCn1cc[n+](C)c1C.O=S(=O)([O-])O [2,3-dimethyl-1-propylimidazolium hydrogen sulfate]

>  <Class Name>
criterion not met

$$$$
>  <Compound>
CCCCC[n+]1ccn(C)c1.O=P([O-])(O)O [1-methyl-3-pentylimidazolium dihydrogen phosphate]

>  <Class Name>
criterion not met

$$$$
>  <Compound>
CCCCn1cc[n+](C)c1.O=P([O-])(O)O [1-butyl-3-methylimidazolium dihydrogen phosphate]

>  <Class Name>
criterion not met

$$$$
>  <Compound>
CCn1cc[n+](C)c1C.O=S(=O)([O-])O [1-ethyl-2,3-dimethylimidazolium hydrogen sulfate]

>  <Class Name>
criterion not met

$$$$
>  <Compound>
CCCCn1cc[n+](C)c1C.O=S(=O)([O-])O [1-butyl-2,3-dimethylimidazolium hydrogen sulfate]

>  <Class Name>
criterion met

$$$$

For CCCCCn1cc[n+](C)c1C.O=S(=O)([O-])O [2,3-dimethyl-1-pentylimidazolium hydrogen sulfate] , is the recorded electrical conductivity below the cut-off of 0.2 S/m?
criterion met

###

- Assay Conditions: 333.15 K, Maximal bubble pressure
Would you mind labelling by surface tension liquid-gas? At or over 40 mN/m is met, under is not met.

As a guide, the following entries are already answered.
>  <Compound>
CCCn1cc[n+](C)c1C.O=S(=O)([O-])O [2,3-dimethyl-1-propylimidazolium hydrogen sulfate]

>  <Class Name>
met

$$$$
>  <Compound>
CCCCn1cc[n+](C)c1.O=P([O-])(O)O [1-butyl-3-methylimidazolium dihydrogen phosphate]

>  <Class Name>
met

$$$$
>  <Compound>
CCCCn1cc[n+](C)c1C.O=S(=O)([O-])O [1-butyl-2,3-dimethylimidazolium hydrogen sulfate]

>  <Class Name>
met

$$$$
>  <Compound>
CCn1cc[n+](C)c1C.O=S(=O)([O-])O [1-ethyl-2,3-dimethylimidazolium hydrogen sulfate]

>  <Class Name>
met

$$$$
>  <Compound>
CCC[n+]1ccn(C)c1.O=P([O-])(O)O [1-methyl-3-propylimidazolium dihydrogen phosphate]

>  <Class Name>
met

$$$$

Does the reported surface tension liquid-gas for CCCCn1cc[n+](C)c1.O=C([O-])O [1-butyl-3-methylimidazolium hydrogen carbonate] fall at or above the 40 mN/m mark?
not met

Please indicate if the recorded surface tension liquid-gas for CCCCCn1cc[n+](C)c1.O=C([O-])O [3-methyl-1-pentylimidazolium hydrogen carbonate] meets or exceeds 40 mN/m.
not met

###

- Assay Conditions: 318.15 K; 101.33 kPa; Liquid; Alternating current cell with electrodes
Decision: electrical conductivity compared against 0.5 S/m; not below it gives true, below it gives false.

>  <Compound>
CCCCn1cc[n+](C)c1C.O=S(=O)([O-])O [1-butyl-2,3-dimethylimidazolium hydrogen sulfate]

>  <Class Name>
false

$$$$
>  <Compound>
CCCCn1cc[n+](C)c1.O=P([O-])(O)O [1-butyl-3-methylimidazolium dihydrogen phosphate]

>  <Class Name>
true

$$$$
>  <Compound>
CCCCC[n+]1ccn(C)c1.O=P([O-])(O)O [1-methyl-3-pentylimidazolium dihydrogen phosphate]

>  <Class Name>
false

$$$$

Next:
Textbook exercise: given the entry CCCn1cc[n+](C)c1C.O=S(=O)([O-])O [2,3-dimethyl-1-propylimidazolium hydrogen sulfate] , state whether its electrical conductivity is greater than or equal to 0.5 S/m.
false
